- assay.info: binders from COS7 lysate, DM2A8 probe, primary screen, torsin A project, cell lysate, small-molecule microarray, fluorescence 635/667 (AID 1065)
- cond: higher = more signal, COS7 lysate expressing mutant human TOR1A
measurement.name: composite z-score
Answer with a bare number; do not write a unit.

C[N+](C)(C)CCCCNC(=O)[C@@H]1C[C@@H]2C(=O)NCC(=O)N2[C@@H]1c1cccc(OCCO)c1 | 2.04
C=C1C=C(Br)C2(OCCCO2)[C@H]2OC12 (some centres undefined) | 0.249
C=CCC(OC(C)=O)[C@@H]1[C@@H](N(Cc2ccc(-c3ccccc3)cc2)C(=O)c2ccc(-c3ccccc3)cc2)c2cc(OCCCO)ccc2N1C(=O)c1ccc(-c2ccccc2)cc1 (some centres undefined) | 0.054
Cc1ccc(N2C(=O)c3ccccc3[C@](C)(C(=O)NC3CC3)[C@@H]2c2ccc(CO)cc2)nc1 | -0.241

Entry `C=C(COC)C(=O)CC[C@H](OC(=O)c1ccccc1-c1ccccc1C(=O)O)c1ccccc1OCCO` — recorded composite z-score = 0.607

response.value for `COC(=O)C(CC#Cc1ccc2c(c1)[C@]1(C(=O)N2)[C@H](c2ccccc2OCCO)N2[C@H](c3ccccc3)[C@H](c3ccccc3)OC(=O)[C@H]2[C@@H]1C(=O)N1CCCCCCC1)C(=O)OC` (field: composite z-score) = 2.62
